# Ki per record follows
- Assayed Target: HCV NS3 protease genotype 3a (3A-1) (Hepatitis C virus genotype 3a, UniProt Q81258)
- Sequence (Q81258 1664-1717): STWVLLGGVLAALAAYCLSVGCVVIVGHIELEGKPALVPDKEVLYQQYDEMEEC
- Sequence (Q81258 1033-1663): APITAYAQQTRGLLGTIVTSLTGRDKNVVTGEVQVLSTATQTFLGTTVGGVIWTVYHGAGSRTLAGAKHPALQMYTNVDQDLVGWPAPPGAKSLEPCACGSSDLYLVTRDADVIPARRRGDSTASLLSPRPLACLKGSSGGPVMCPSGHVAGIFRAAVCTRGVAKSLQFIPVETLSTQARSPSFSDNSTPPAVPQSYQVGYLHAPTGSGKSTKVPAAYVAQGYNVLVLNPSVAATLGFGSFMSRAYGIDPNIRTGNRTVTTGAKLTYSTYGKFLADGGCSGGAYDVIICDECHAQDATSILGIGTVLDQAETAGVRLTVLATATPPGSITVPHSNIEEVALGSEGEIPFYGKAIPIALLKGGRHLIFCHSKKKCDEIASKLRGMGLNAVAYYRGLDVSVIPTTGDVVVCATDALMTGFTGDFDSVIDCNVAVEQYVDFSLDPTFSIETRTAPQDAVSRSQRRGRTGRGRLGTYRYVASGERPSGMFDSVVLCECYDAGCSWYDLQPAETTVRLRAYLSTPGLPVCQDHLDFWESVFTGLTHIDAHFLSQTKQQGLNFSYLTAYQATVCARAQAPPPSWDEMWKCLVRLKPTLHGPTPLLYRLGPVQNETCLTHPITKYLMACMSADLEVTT
- Assay Comment: HCV NS3 protease time-resolved fluorescence (TRF) assay, genotype 3a
- Type: biochemical
- Assay Conditions: Ki 3a
Report as: number unit

# count of solved cases: 6
- C=C[C@@H]1C[C@]1(NC(=O)[C@@H]1C[C@@H]2CN1C(=O)[C@H](C(C)(C)C)NC(=O)O[C@@H]1CCC[C@H]1CC/C=C/Cc1c(nc3ccccc3c1OCCCO)O2)C(=O)NS(=O)(=O)C1(C)CC1 [Example 71]: 0.42 nM
- C=C[C@@H]1C[C@]1(NC(=O)[C@@H]1C[C@@H]2CN1C(=O)[C@H](C(C)(C)C)NC(=O)O[C@@H]1CCC[C@H]1CC/C=C/Cc1c(nc3ccccc3c1OCCN1CCOCC1)O2)C(=O)NS(=O)(=O)C1CC1 [Example 51]: 1.9 nM
- C=C[C@@H]1C[C@]1(NC(=O)[C@@H]1C[C@@H]2CN1C(=O)[C@H](C1CCCC1)NC(=O)O[C@@H]1C[C@H]1CCCCCc1c(nc3ccccc3c1OCCN1CCOCC1)O2)C(=O)NS(=O)(=O)C1(C)CC1 [Example 121]: 12 nM
- C=C[C@@H]1C[C@]1(NC(=O)[C@@H]1C[C@@H]2CN1C(=O)[C@H](C(C)(C)C)NC(=O)O[C@@H]1C[C@H]1CCCCCc1c(nc3ccccc3c1O)O2)C(=O)NS(=O)(=O)C1(C)CC1 [Example 120]: 1.1 nM
- C=C[C@@H]1C[C@]1(NC(=O)[C@@H]1C[C@@H]2CN1C(=O)[C@H](C(C)(C)C)NC(=O)O[C@@H]1CCC[C@H]1CCCCCc1c(nc3ccccc3c1OCCN1CCOCC1)O2)C(=O)NS(=O)(=O)N1CCCCC1 [Example 110]: 488 nM
- C=C[C@@H]1C[C@]1(NC(=O)[C@@H]1C[C@@H]2CN1C(=O)[C@H](C1CCCC1)NC(=O)O[C@@H]1CCC[C@H]1CC/C=C/Cc1c(nc3ccccc3c1OCCN1CCOC1=O)O2)C(=O)NS(=O)(=O)C1CC1 [Example 42]: 1.5 nM

Need Ki of C=C[C@@H]1C[C@]1(NC(=O)[C@@H]1C[C@@H]2CN1C(=O)[C@H](C(C)(C)C)NC(=O)O[C@@H]1C[C@H]1CCCCCc1c(nc3ccccc3c1OCCCNC1CCCC1)O2)C(=O)NS(=O)(=O)C1(C)CC1 [Example 182] , thanks. 0.61 nM

Name the recorded Ki for C=C[C@@H]1C[C@]1(NC(=O)[C@@H]1C[C@@H]2CN1C(=O)[C@H](C1CCCC1)NC(=O)O[C@@H]1CCC[C@H]1CC/C=C/Cc1c(nc3ccccc3c1OC)O2)C(=O)NS(=O)(=O)C1CC1 [Example 4] . 3.4 nM

I would be grateful if you could share the reported Ki for C=C[C@@H]1C[C@]1(NC(=O)[C@@H]1C[C@@H]2CN1C(=O)[C@H](C(C)(C)C)NC(=O)O[C@@H]1CCC[C@H]1CC/C=C/Cc1c(nc3ccccc3c1OC)O2)C(=O)NS(=O)(=O)C1CC1 [Example 6] . 1.3 nM

---

Each item that follows carries a reported Ki.
- Assayed Target: HCV NS3 protease genotype 3a (3A-1) (Hepatitis C virus genotype 3a)
- Assay Comment: HCV NS3 protease time-resolved fluorescence (TRF) assay, genotype 3a
- Assay type: biochemical
- Assay Conditions: Ki 3a
Just the number in nM, nothing appended.

I'd like to know its Ki. The compound in question is C=C[C@@H]1C[C@]1(NC(=O)[C@@H]1C[C@@H]2CN1C(=O)[C@H](C(C)(C)C)NC(=O)O[C@@H]1CCC[C@H]1CC/C=C/Cc1c(nc3ccccc3c1OCCCN1CCCC1=O)O2)C(=O)NS(=O)(=O)C1(C)CC1 [Example 89] 0.32

# get_value(readout='Ki', item= C=C[C@@H]1CC1(NC(=O)[C@@H]1C[C@@H]2CN1C(=O)[C@H](C1CCCCC1)NC(=O)O[C@@H]1C[C@H]1CCCCCc1c(nc3ccccc3c1OCCCN1CCNCC1)O2)C(=O)NS(=O)(=O)C1(C)CC1 (stereo partly shown) [Example 265] ) 1.15

What value of Ki has been recorded for this entry: C=C[C@@H]1C[C@]1(NC(=O)[C@@H]1C[C@@H]2CN1C(=O)[C@H](C1CCCC1)NC(=O)O[C@@H]1CCC[C@H]1CC/C=C/Cc1c(nc3ccccc3c1OCCc1ccccn1)O2)C(=O)NS(=O)(=O)C1CC1 [Example 43] 9.9

Please report the recorded Ki for C=C[C@@H]1C[C@]1(NC(=O)[C@@H]1C[C@@H]2CN1C(=O)[C@H](C(C)(C)C)NC(=O)O[C@@H]1CCC[C@H]1CCCCCc1c(nc3ccccc3c1OCCN1CCOCC1)O2)C(=O)NS(=O)(=O)N1CCOCC1 [Example 112] . 620
